- Tested on: VIOTR
- EXPERIMENTAL PROTOCOL: Pre-emergence action against VIOTR
- Type: in vivo, Viola tricolor
- CONDITION NOTES: Dosage 320 g/ha, pre-emergence
The molecules listed here are annotated with their Pre-emergence action against VIOTR.
Express it in %; write the number only.

Worked set:
CCCn1nnnc1NC(=O)c1ccc(C(F)(F)F)c(C(=O)c2cc(F)cc(F)c2)c1Cl = 90
CCCn1nnnc1NC(=O)c1ccc(C(F)(F)F)c(C(=O)CC)c1C = 100

Lab note: next molecule to report on.
Returns the measured Pre-emergence action against VIOTR for the input molecule. Input: "CCn1nnnc1NC(=O)c1ccc(C(F)(F)F)c(C(=O)C(C)(C)C)c1Cl"
100

Every entry's value here was drawn from patent US11051515B2.
